system: 786-0 renal; assay: NCI-60 one-dose screen, 48 h; settings: 10 µM unless noted
The panel holds about 83,000 compounds, 20% with a hit somewhere; the sample as a whole holds those more often. The source made the active and inactive calls. Rule for the calls: active = growth percent below 10; inactive = the rest.
Lab note: assign the record to one of active, inactive

Consider the following illustrative entries.
[[record]]
compound = "COc1ccc(N2N=C(c3ccc4c(c3)OCO4)CC2c2cccc(NC(=O)CCNS(=O)(=O)c3ccc(Cl)cc3)c2)cc1 (configuration not stated)"
assayedsystem = "786-0 renal"
classname = "inactive"

[[record]]
compound = "CC(=O)OCC1OC(OC2C(COC(C)=O)OC(n3cc(COc4ccc5ccc(=O)oc5c4)nn3)C(OC(C)=O)C2OC(C)=O)C(OC(C)=O)C(OC(C)=O)C1OC(C)=O (configuration not stated)"
assayedsystem = "786-0 renal"
classname = "inactive"

[[record]]
compound = "CC(/C=C1\\SC(=S)N(CCCC(=O)NC(CC(C)C)C(=O)O)C1=O)=C\\c1ccccc1 (configuration not stated)"
assayedsystem = "786-0 renal"
classname = "inactive"

[[record]]
compound = "COC(=O)/C=C/c1cccc2c1C(=O)NC(C)(c1cc3ccccc3oc1=O)N2 (configuration not stated)"
assayedsystem = "786-0 renal"
classname = "inactive"

[[record]]
compound = "Cc1cccc(NC(=O)[C@]23CCC(C)(C)CC2C2=CCC4[C@@]5(C)C[C@@H](O)[C@H](O)[C@@](C)(CO)C5CC[C@@]4(C)[C@]2(C)CC3)c1 (some centres not stated)"
assayedsystem = "786-0 renal"
classname = "inactive"

[[record]]
compound = "COc1cc2c(c(OC)c1OC)C(=O)CC(c1cccc(NC(=O)c3cc([N+](=O)[O-])ccc3Cl)c1)O2 (configuration not stated)"
assayedsystem = "786-0 renal"
classname = "inactive"


Here is the next item to consider.
What was the test verdict on COc1ccc(-c2ccnc(SCc3cc4cc(OC)ccc4[nH]c3=O)n2)cc1 ?
inactive
